Values were extracted from ChEMBL document CHEMBL1641554.

system: H4; experiment: Induction of autophagy in human H4 cells expressing LC3 using DAPI staining after 4 hrs by fluorescence microscopic analysis; type: functional, cell-based; conditions: H4, 4 h
Exam item: assign criterion met to entries whose EC50 is below 2 µM and criterion not met to entries at or above 2 µM. Note that a value of exactly 2 µM receives criterion not met.

OC1(c2ccc(Cl)c(C(F)(F)F)c2)CCN(CCCC(c2cccc(C(F)(F)F)c2)c2cccc(C(F)(F)F)c2)CC1    criterion met
OCCN1CCN(CCCC(c2ccc(F)cc2)c2ccc(F)cc2)CC1    criterion not met

Qu. Does the reported EC50 of Cc1ccc(C2CCN(CCCC(c3ccc(F)cc3)c3ccc(F)cc3)CC2)cc1 stay below 2 µM?
Ans. criterion not met

Qu. Does the reported EC50 of O=C(CCC(c1ccc(F)cc1)c1ccc(F)cc1)N1CCC2(CC1)C(=O)NCN2c1ccccc1 stay below 2 µM?
Ans. criterion not met

Qu. Does the reported EC50 of O=C1NCN(c2ccccc2)C12CCN(CCC(c1ccc(F)cc1)c1ccc(F)cc1)CC2 stay below 2 µM?
Ans. criterion not met

Qu. Does the reported EC50 of O=C1NCN(c2ccccc2)C12CCN(C1c3ccccc3-c3ccccc31)CC2 stay below 2 µM?
Ans. criterion not met

---

test system: H4; assay: Induction of autophagy in human H4 cells expressing LC3 using DAPI staining after 4 hrs by fluorescence microscopic analysis; format: functional, cell-based; conditions: H4, 4 h
Measured Parameter: pEC50
Scale: negative log10 of molar concentration, which is what pEC50 denotes.

Please review the following examples before continuing.
N#CC1(c2ccccc2)CCN(CCCC(c2ccc(F)cc2)c2ccc(F)cc2)CC1    4.98
OC1(c2ccc(Cl)c(C(F)(F)F)c2)CCN(CCCC(c2ccc(C(F)(F)F)cc2)c2ccc(C(F)(F)F)cc2)CC1    6.55

Now look at this one.
Qu. State measured pEC50 of the compound OC1(c2ccc(Cl)c(C(F)(F)F)c2)CCN(CCC(c2ccc(F)cc2)c2ccc(F)cc2)CC1 with H4.
Ans. 5.35
